test system: U-87 MG; experiment: In vitro inhibition of U-87 MG (human glioblastoma) cell growth.; format: functional, cell-based, U-87MG ATCC
pIC50: −log10 of the molar value.
QUANTITY_KIND: pIC50

Examples from the recorded data:
>>> val("O=C1c2nccc(Cl)c2-c2nc3ccccc3c3ccnc1c23")
7.70
>>> val("Nc1ccnc2c1C(=O)c1c(-c3ccccc3[N+](=O)[O-])ccnc1C2=O")
5.57
>>> val("CC(=O)Nc1ccnc2c1C(=O)c1c(-c3ccccc3NC(=O)C(F)(F)F)ccnc1C2=O")
7.22
>>> val("CN(C)c1ccnc2c1C(=O)c1c(-c3ccccc3NC(=O)C(F)(F)F)ccnc1C2=O")
7.22
>>> val("O=C1c2nc(O)ccc2C(=O)c2c(-c3ccccc3NC(=O)C(F)(F)F)ccnc21")
7.40
>>> val("O=C1c2nccc(Cl)c2C(=O)c2c(-c3ccccc3[N+](=O)[O-])ccnc21")
5.70
>>> val("CN(C)c1ccnc2c1-c1nc3ccccc3c3ccnc(c13)C2=O")
7.30

(A) O=C1c2nccc(-c3ccccc3NC(=O)C(F)(F)F)c2C(=O)c2c([N+](=O)[O-])ccnc21
(B) O=C1c2nccc(Cl)c2C(=O)c2c(-c3ccccc3NC(=O)C(F)(F)F)ccnc21
(C) O=C1c2nccc(O)c2C(=O)c2c(-c3ccccc3[N+](=O)[O-])ccnc21
# input Hey, can you sort those compounds up there by pIC50, smallest first? Arrange the labels as the request states and list them.
# output A, C, B
(A: 5.33, C: 6.10, B: 7.30)
